System: 786-0 renal
Assay: NCI tumour cell line growth inhibition, 48 h
Entries and their measured GI50 follow.

What the record says about "C#Cc1ccc(-n2c(/C=C/c3ccc4ccccc4c3)nc3ncccc3c2=O)cc1" : GI50 is 4.08 µM

The molecule "Cc1cc2c(cc1Cl)N1C(=O)NS(=O)(=O)N=C1NS2(=O)=O" showed GI50 equal to > 100 µM

Quick note, GI50 for "CC(=O)C(C=O)C(C)=O.CC(=O)CC(C)=O.CC(=O)CC(C)=O.[Ru]" landed at 37.3 µM

Short answer for "OCc1ccc(N(Cc2ccc(F)cc2)CC2CCC2)cc1Cl" : GI50 was 12.3 µM

* * *

Tested on: K-562 leukemia
Assay: NCI tumour cell line growth inhibition, 48 h
Below, each entry is listed with its recorded TGI.
Express your answer in µM, writing the number without its unit.

>>> print(df.to_string())
                              smiles_record  subject_of_test  assay_value
0  CCn1c(O)c(C=Nc2ccccc2)s/c1=N/Nc1nc(-c2ccc(O)c(O)c2)cs1   K-562 leukemia         26.5
1  CCO[C@]12CCC[C@H]1[C@@H]1C(=O)c3ccccc3C(=O)C1=C(C)O2   K-562 leukemia         94.7
2        O=C(/C=C/c1ccc(O)cc1)c1cc(Cl)ccc1O   K-562 leukemia         71.3

Now take the following molecule into account.
Considering "Cn1cnc([N+](=O)[O-])c1Sc1nc2ccc([N+](=O)[O-])cc2[nH]1" , its TGI with K-562 leukemia was recorded as 69.2

* * *

# reported GI50; entries follow
System: IGROV1 ovarian
Assay: NCI tumour cell line growth inhibition, 48 h

For Fc1ccc(C2C3CCOc4c(ccc5ccccc45)C3=NN2c2ccccc2)cc1 (stereo unspecified) the compound record lists GI50 as > 100 µM

Notebook: "COc1cc(-c2nn(-c3cccc(NC(=O)CCN4CCN(C)CC4)c3)cc2-c2ccncc2)ccc1Cl" , GI50 read as 2.37 µM

Entry "COc1ccc(/C=C2/CN(CCC#N)C/C(=C\c3ccc(OC)cc3)C2=O)cc1" ; GI50 = 2.77 µM

Per the record, "O=C1NC(=O)C(c2c[nH]c3ccccc23)=C1c1ccccc1" has GI50 of > 25 µM

The reported GI50 of the compound "CC(=O)C(C=O)C(C)=O.CC(=O)CC(C)=O.CC(=O)CC(C)=O.[Ru]" was 20.4 µM

Noted for "COc1ccc2nc3cc(Cl)ccc3c(Nc3cc(C(C)C)c(O)cc3C)c2c1" : its GI50 reads 1.55 µM

Item: "Cc1[nH]n(-c2cccc(Cl)c2)c(=O)c1/C=C1\C=c2ccccc2=CC1=O" | GI50: 27.1 µM

Form field GI50, entry "CN1CCN(c2ccc(Nc3ncc4cc5n(c4n3)C3(CCCCC3)CNC5=O)nc2)CC1" : 2.42 µM

// COc1cc(NC(C)CCCN2C(=O)c3ccccc3C2=O)c2ncccc2c1OC (stereo unspecified) : GI50 value = 18.6 µM

Note to self: GI50 recorded for "Fc1ccc(-c2nn3c(COc4ccc(Cl)cc4Cl)nnc3s2)cc1Oc1ccccc1" was 26.2 µM

Lab book: GI50 of "N=C1/C(=C2\Nc3ccccc3S2)CC(=O)N1c1ccc(SC(F)F)cc1" noted as 5.07 µM

* * *

Test system: MOLT-4 leukemia
Test: NCI tumour cell line growth inhibition, 48 h
# TGI listing for each entry below
Supply the numeric figure in µM, leaving out any unit text.

Before answering, review these 4 worked examples.
>>> df
                                   compound  quantity_measured  assay_value
0  COc1ccc2nc3c([N+](=O)[O-])ccc(NCCN(C)C)c3c(NCCN(C)C)c2c1                TGI        0.732
1  O=C1C(Br)=CC2(C=C1Br)CCNc1c(O)c3c4c(c12)=NCCC=4C=N3                TGI         0.11
2  CCOC(=O)c1cc(-c2ccccc2)[nH]c1N/N=C/c1c(Cl)cccc1Cl                TGI         24.3
3  C[n+]1c2ccccc2c(CNC(CS)C(=O)O)c2ccccc21 (configuration not stated)                TGI         36.7

Per the records, this compound ( "O=C(c1ccco1)c1c(C(F)(F)F)n([O-])c2ccc(F)cc2[n+]1=O" ) has TGI equal to 0.54

* * *

System: MOLT-4 leukemia
Assay: NCI tumour cell line growth inhibition, 48 h
quantity_measured: GI50

Here are 8 molecules together with their reported answers.
>>> df
                                   molecule  assay_value
0  O=C1N=C(Nc2nc(-c3csc(NC4=NC(=O)/C(=C\c5ccc(Cl)cc5)S4)n3)cs2)S/C1=C/c1ccc(Cl)cc1      1.69 µM
1  CC1COCCN1CC#CCOC(=O)c1cc2ccccc2oc1=O (centres undefined)     > 100 µM
2  COc1ccc2nc3cc(Cl)ccc3c(Nc3cc(C(C)C)c(O)cc3C)c2c1      1.38 µM
3  Cc1cc2c(cc1Cl)SC(C(=O)c1ccc(Cl)c(Cl)c1)NS2(=O)=O (centres undefined)      29.5 µM
4  O=C1/C(=C/c2ccccc2[N+](=O)[O-])COc2ccc(O)c(O)c21     0.431 µM
5  CC[C@@]1(O)C(=O)NCc2c1cc1n(c2=O)Cc2cc3c(NC(C)=O)cccc3nc2-1     > 100 µM
6  COc1ccc2c(c1)C(=O)c1c-2c(N2CCN(C(=O)CCNCCNCCO)CC2)nc2ccccc12      5.05 µM
7  COc1ccc(-c2nc3sccn3c2-c2ccnc(NCCCNS(=O)(=O)c3ccc(F)cc3)n2)cc1       1.9 µM

# next molecule below
Lab note: "CNCCNc1nc2ccccc2c2c(=O)c3cccc(C)c3sc12" gave GI50 of 1.28 µM

* * *

System: 786-0 renal
Assay: NCI tumour cell line growth inhibition, 48 h
quantity_measured: TGI (µM)
# output: bare number, implied unit µM

>>> print(df.to_string())
                                   molecule  quantity_measured  assay_value
0  O=C1/C(=C/c2ccccc2[N+](=O)[O-])COc2ccc(O)c(O)c21                TGI         4.74
1  COC(=O)C(Cc1nc2ccccc2[nH]c1=O)C(=O)C(=O)Nc1ccc(F)cc1 (stereo not given)                TGI         58.8
2  CC(=O)Oc1ccc(/C=C/C(=O)OCCOC(=O)/C=C/c2ccc(OC(C)=O)c(OC(C)=O)c2)cc1OC(C)=O                TGI         22.3

Please turn your attention to the following entry.
Entry N#CC1=C(N)OC(c2cccc([N+](=O)[O-])c2)C1(C#N)C#N (stereo not given) ; TGI = 28.1

* * *

Test system: DMS 114 small cell lung
Experiment: NCI tumour cell line growth inhibition, 48 h
quantity_measured: TGI

Some molecules with recorded TGI:
>>> print(df.to_string())
                                   molecule  assay_value
0  O=C(NC1C(=O)NNC1c1ccccc1Cl)c1ccccc1 (configuration not stated)     > 100 µM
1  COC(=O)C(Cc1nc2ccccc2[nH]c1=O)C(=O)C(=O)Nc1ccc(F)cc1 (configuration not stated)      80.7 µM
2  NCC1(N2CCOCC2)C2CCCC21CNc1ccccc1 (configuration not stated)     > 100 µM

For record "O=C1C(Br)=CC2(C=C1Br)CCNc1c(O)c3c4c(c12)=NCCC=4C=N3" the listed TGI is 0.101 µM

Data point: "Cc1ccc(NC(=O)C(=O)CC(=O)c2ccccc2)cc1C" ; TGI = > 100 µM

Entry CSc1nc2nc(C(O)C(O)C(O)CO)cnc2c(=O)[nH]1 (configuration not stated) — recorded TGI = > 100 µM

Per the records, this molecule ( "O=C(/C=C/c1ccc(O)cc1)c1cc(Cl)ccc1O" ) has TGI equal to 67.4 µM

The molecule COc1c(C)c(O)c2c(c1C)OC(c1ccccc1)CC2=O (configuration not stated) showed TGI equal to > 100 µM

The recorded TGI for "NC(=O)c1ncn(Cc2ccccc2)c1CNC(N)=S" is > 100 µM

The recorded TGI for Cc1ccc(N=NC(C2=NC(=O)CS2)c2nc3ccccc3[nH]2)cc1 (configuration not stated) is > 100 µM

Sample N#CC1CCCCC1NC1(C#N)CCCCC1 (configuration not stated) ; TGI observed: > 100 µM

# molecule "NC(=O)c1cc([N+](=O)[O-])cc([N+](=O)[O-])c1" ; its TGI = > 100 µM

Every entry's value here was drawn from PubChem BioAssay (NCI).
